target_system: SMARCA2 (Homo sapiens)
Sequence (P51531 whole entry): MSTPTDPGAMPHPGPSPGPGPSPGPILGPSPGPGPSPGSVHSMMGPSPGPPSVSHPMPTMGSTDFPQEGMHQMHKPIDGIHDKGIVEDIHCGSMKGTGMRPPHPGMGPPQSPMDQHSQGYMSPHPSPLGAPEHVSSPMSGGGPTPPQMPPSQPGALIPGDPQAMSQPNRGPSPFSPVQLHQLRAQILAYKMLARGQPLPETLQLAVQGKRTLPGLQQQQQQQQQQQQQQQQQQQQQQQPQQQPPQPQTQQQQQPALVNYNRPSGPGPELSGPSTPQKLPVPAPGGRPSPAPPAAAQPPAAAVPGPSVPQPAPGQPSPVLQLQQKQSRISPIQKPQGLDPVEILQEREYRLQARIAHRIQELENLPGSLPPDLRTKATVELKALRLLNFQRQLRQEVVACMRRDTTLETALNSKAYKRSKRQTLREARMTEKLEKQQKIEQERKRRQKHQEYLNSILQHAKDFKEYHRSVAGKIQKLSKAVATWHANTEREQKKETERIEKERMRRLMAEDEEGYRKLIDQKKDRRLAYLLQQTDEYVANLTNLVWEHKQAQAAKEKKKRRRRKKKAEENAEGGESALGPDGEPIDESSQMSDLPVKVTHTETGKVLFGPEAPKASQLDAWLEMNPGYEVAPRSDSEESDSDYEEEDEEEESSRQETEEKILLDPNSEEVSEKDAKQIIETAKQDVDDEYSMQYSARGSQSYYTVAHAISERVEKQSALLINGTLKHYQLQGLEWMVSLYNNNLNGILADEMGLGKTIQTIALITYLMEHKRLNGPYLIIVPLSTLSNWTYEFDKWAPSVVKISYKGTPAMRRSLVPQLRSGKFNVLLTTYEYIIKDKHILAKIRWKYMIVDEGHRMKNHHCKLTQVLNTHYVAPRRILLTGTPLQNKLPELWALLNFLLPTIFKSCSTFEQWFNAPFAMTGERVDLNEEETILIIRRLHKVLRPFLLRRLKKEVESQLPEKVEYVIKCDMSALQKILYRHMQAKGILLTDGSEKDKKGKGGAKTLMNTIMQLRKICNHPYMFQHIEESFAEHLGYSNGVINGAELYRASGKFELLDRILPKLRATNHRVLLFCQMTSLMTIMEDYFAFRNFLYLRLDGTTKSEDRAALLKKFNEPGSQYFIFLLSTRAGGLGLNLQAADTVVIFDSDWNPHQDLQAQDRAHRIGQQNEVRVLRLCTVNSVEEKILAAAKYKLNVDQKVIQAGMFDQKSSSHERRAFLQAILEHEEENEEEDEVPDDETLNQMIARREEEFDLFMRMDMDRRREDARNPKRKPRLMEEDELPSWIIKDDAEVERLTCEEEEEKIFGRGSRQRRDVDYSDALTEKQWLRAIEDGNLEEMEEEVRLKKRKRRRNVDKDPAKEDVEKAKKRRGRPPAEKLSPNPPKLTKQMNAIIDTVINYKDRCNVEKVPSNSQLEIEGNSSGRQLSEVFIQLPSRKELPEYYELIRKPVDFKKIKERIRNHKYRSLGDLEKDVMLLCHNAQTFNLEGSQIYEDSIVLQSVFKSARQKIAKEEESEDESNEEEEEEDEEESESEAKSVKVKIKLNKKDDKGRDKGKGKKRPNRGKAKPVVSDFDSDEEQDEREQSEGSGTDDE
method_notes: MSD SMARCA2 degradation in A549 cell line
Format: cell-based
measurement_context: A549 cells, 24 h, read-out: SMARCA2 MSD A549 degradation 24 h: Average external-Abs DC50
readout_label: DC50

# molecule Cc1ncsc1-c1ccc(CNC(=O)[C@@H]2C[C@@H](O)CN2C(=O)C(N(C)C(=O)C[C@H]2CC[C@H](N3CCC(c4cnc(N5C6CCC5CN(c5cc(-c7ccccc7O)nnc5N)C6)nc4)CC3)CC2)C(C)(C)C)cc1 (stereo partly shown) [I-388] ; its DC50 = 100 to 500 nM

# molecule Cc1ncsc1-c1ccc(CNC(=O)[C@@H]2C[C@@H](O)CN2C(=O)[C@@H](NC(=O)[C@H]2CC[C@H](CN3CCC(c4cnc(N5C6CCC5CN(c5cc(-c7ccccc7O)nnc5N)C6)nc4)CC3)CC2)C(C)(C)C)c(C(F)(F)F)c1 [I-398] ; its DC50 = 501 to 1000 nM

# molecule CC(C)(C)[C@H](NC(=O)[C@H]1CC2(C1)C[C@H](N1CCC(c3cnc(N4C5CCC4CN(c4cc(-c6ccccc6O)nnc4N)C5)nc3)CC1)C2)C(=O)N1C[C@H](O)C[C@H]1C(=O)NOc1ccc(-c2ccccc2F)cc1 (stereo partly shown) [I-537] ; its DC50 = > 1000 nM

# molecule Nc1nnc(-c2ccccc2O)cc1N1CC2CCC(C1)N2c1ncc(C2CCN(CCCCNC(=O)COc3ccc4c(c3)CCCN4C(=O)CCl)CC2)cn1 [I-528] ; its DC50 = > 1000 nM

# molecule Cc1ncsc1-c1ccc(CNC(=O)[C@@H]2C[C@@H](O)CN2C(=O)[C@@H](NC(=O)[C@H]2CC[C@H](c3cnc(N4C5CCC4CN(c4cc(-c6ccccc6O)nnc4N)C5)nc3)CC2)C(C)(C)C)c(C(=O)N(C)C)c1 [I-431] ; its DC50 = < 100 nM

Others:
# molecule Cc1ncsc1-c1ccc(CNC(=O)[C@@H]2C[C@@H](O)CN2C(=O)[C@@H](NC(=O)[C@H]2CC[C@H](N3CCC(c4cnc(N5C6CCC5CN(c5cc(-c7ccccc7O)nnc5N)C6)nc4)CC3)CC2)C(C)(C)C)cc1 [I-355] ; its DC50 = 100 to 500 nM

# molecule Cc1ncsc1-c1ccc(CNC(=O)[C@@H]2C[C@@H](O)CN2C(=O)[C@@H](NC(=O)[C@H]2CC3(C[C@H](CN4CCC(n5cc(-c6cc(-c7ccccc7O)nnc6N)cn5)CC4)C3)C2)C(C)(C)C)cc1 (stereo partly shown) [I-432] ; its DC50 = 100 to 500 nM

* * *

target_system: SMARCA4 (Homo sapiens)
Construct: SMARCA2 and SMARCA4 protein degradation in MV4-11 cells; endogenous in cells; host or cells: MV4-11
Sequence (P51532 whole entry): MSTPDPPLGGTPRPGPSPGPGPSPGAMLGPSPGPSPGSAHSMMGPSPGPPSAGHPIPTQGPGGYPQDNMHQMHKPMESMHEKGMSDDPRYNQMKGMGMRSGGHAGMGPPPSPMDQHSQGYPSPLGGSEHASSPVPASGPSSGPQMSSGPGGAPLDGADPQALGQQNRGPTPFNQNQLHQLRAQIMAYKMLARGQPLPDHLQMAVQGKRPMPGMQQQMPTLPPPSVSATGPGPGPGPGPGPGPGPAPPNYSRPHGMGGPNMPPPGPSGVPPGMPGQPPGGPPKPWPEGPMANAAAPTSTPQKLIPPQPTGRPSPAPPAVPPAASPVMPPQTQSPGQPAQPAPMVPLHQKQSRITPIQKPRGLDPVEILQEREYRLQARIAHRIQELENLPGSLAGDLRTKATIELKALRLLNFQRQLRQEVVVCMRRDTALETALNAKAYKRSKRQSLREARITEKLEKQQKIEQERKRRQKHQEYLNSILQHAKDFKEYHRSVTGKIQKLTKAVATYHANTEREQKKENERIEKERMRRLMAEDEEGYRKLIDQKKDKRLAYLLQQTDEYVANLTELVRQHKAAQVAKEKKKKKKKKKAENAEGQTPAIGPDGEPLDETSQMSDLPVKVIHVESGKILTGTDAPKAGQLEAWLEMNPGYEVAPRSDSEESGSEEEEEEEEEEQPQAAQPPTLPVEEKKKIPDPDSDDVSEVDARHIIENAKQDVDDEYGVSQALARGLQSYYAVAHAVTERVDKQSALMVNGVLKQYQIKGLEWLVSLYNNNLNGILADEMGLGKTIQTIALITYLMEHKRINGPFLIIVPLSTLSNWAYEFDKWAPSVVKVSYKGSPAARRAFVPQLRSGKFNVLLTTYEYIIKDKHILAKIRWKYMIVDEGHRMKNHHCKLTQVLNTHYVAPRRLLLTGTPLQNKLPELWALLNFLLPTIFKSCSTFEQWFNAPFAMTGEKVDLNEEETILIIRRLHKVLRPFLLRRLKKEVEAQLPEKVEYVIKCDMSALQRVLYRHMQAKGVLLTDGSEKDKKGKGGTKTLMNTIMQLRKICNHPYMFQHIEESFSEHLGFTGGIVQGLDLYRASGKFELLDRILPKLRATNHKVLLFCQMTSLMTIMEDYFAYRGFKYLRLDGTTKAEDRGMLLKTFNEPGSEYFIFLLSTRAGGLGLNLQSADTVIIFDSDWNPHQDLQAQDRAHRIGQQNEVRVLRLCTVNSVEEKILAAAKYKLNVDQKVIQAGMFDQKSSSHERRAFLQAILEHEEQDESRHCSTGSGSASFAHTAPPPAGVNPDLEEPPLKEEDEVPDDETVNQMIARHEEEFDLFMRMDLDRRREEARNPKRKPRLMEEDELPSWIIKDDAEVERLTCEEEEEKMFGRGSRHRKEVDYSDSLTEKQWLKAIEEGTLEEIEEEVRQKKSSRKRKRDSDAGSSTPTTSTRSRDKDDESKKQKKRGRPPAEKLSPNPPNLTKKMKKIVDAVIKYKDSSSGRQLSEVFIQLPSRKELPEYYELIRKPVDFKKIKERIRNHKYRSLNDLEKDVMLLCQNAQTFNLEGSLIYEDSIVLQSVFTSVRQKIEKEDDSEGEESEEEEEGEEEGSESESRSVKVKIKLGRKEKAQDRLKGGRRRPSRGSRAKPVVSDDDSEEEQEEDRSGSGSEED
method_notes: SMARCA4 Western blot MV4-11 degradation
Type: cell-based
measurement_context: MV4-11 cells, 24 h, read-out: SMARCA4 WB MV411 degradation 24 h: Average external-Abs DC50
Here, each record is paired with measured DC50 data.

# compound Cc1ncsc1-c1ccc(CNC(=O)[C@@H]2C[C@@H](O)CN2C(=O)[C@@H](NC(=O)[C@H]2CC[C@H](c3cnc(N4C5CCC4CN(c4cc(-c6ccccc6O)nnc4N)C5)nc3)CC2)C(C)(C)C)cc1 ; its DC50 = < 100 nM

# compound Cc1ncsc1-c1ccc(CNC(=O)[C@@H]2C[C@@H](O)CN2C(=O)[C@@H](NC(=O)C(=O)N2CCC(c3cnc(N4C5CCC4CN(c4cc(-c6ccccc6O)nnc4N)C5)nc3)CC2)C(C)(C)C)cc1 ; its DC50 = > 1000 nM

Next up:
# compound Cc1ncsc1-c1ccc(CNC(=O)[C@@H]2C[C@@H](O)CN2C(=O)[C@@H](NC(=O)[C@H]2CC[C@H](Cc3cnc(N4C5CCC4CN(c4cc(-c6ccccc6O)nnc4N)C5)nc3)CC2)C(C)(C)C)cc1 ; its DC50 = < 100 nM
